# method_description: Clearance in Sprague-Dawley rat at 10 mg/kg, iv measured up to 24 hrs by LC-MS/MS analysis
# Type: ADME, organism-based
# applied_conditions: in vivo
readout: clearance (mL/min/kg)
One number for each entry, in mL/min/kg.

Challenge: Need clearance, item Cc1cc(Nc2ccc(C(=O)/C=C/c3ccc4ccccc4c3)cc2)n2nc(SCc3nc4ccccc4[nH]3)nc2n1
Response given: 17.7

###

# Tested on: SW-620
# method_description: Reversal of resistance to paclitaxel-induced cytotoxicity in human SW-620 cells assessed as reduction in paclitaxel IC50 at 1 uM preincubated for 4 hrs followed by paclitaxel addition and measured after 72 hrs by MTT assay (reference value: 7.69 +/- 2.78 nM)
# Assay type: functional, cell-based
readout: pIC50
Answers are plain numbers, as −log10 of the molar value.

Challenge: Param readout = pIC50; param system = SW-620; param query = Cc1cc(Nc2ccc(C(=O)/C=C/c3ccc4ccccc4c3)cc2)n2nc(SCc3nc4ccccc4[nH]3)nc2n1 ; response: value
Response given: 8.14

This collection of values is drawn from ChEMBL document CHEMBL5055665.
